The following compounds are shown together with reported Potency values.
Experiment: qHTS Assay for Identification of Small Molecule Agonists for Hypoxia Response Element Signaling Pathway (AID 914); also: potency is read from the fitted curve at half-maximal effect
Settings: ME-180 (cervical carcinoma) HRE-bla reporter, beta-lactamase ratio, CoCl2, 17 h
From the text: NIH Molecular Libraries Screening Centers Network [MLSCN] NIH Chemical Genomics Center [NCGC] Hypoxia-inducible factor-1 (HIF-1) is the major hypoxia-regulated transcription factor that controls cellular responses to low oxygen concentration. HIF-1 is composed of two subunits: hypoxia responsive HIF-1 alpha and constitutively expressed HIF-1 beta, which is also known as aryl hydrocarbon receptor nuclear translocator. […]
Results filed as inconclusive are left out. Calls of active or inactive are those of the source. Calls follow the shape of the dose curve; as a rule, active = well fitted activation curve with a large enough effect in the signal ratio, with a control signal flat (not every such curve was filed as active); inconclusive = small, poorly fitted or top-dose-only effect, or effect the other way, or a change in a side signal; inactive = flat fitted curve, though single readings scatter; the % refers to the signal ratio.

So what's the measured Potency for this one? CN(C)c1ncc2nc(-c3cc(F)cc(F)c3)c(=O)n(Cc3cccs3)c2n1
0.126 µM (active)

Another compound to look at: Clc1ccccc1-c1cncnc1NCCN1CCOCC1
3.16 µM (active)

Another compound to look at: O=c1c(-c2ccc(F)cc2)nc2cnc(N3CCNCC3)nc2n1Cc1cccs1
2.51 µM (active)

Another compound to look at: COCCNc1ncnc2ccc(-c3c(C)noc3C)cc12
1.58 µM (active)

Another compound to look at: Cn1cc(-c2nc3cnc(Oc4ccccc4)nc3n(CCC#N)c2=O)c2ccccc21
3.16 µM (active)

Another compound to look at: COCCn1c(=O)c(-c2cn(C)c3ccccc23)nc2cnc(Oc3ccc(OC)cc3)nc21
3.16 µM (active)

Another compound to look at: CN1CCN(c2ncc3nc(-c4cc(F)cc(F)c4)c(=O)n(CCC#N)c3n2)CC1
3.16 µM (active)

Another compound to look at: O=c1c(-c2cc(F)cc(F)c2)nc2cnc(N3CCOCC3)nc2n1Cc1ccc(F)cc1
3.16 µM (active)

Another compound to look at: O=c1c(-c2cccs2)nc2cnc(Oc3ccccc3)nc2n1-c1ccccc1
2.51 µM (active)

Another compound to look at: O=c1c(-c2ccc(F)cc2)nc2cnc(N3CCOCC3)nc2n1Cc1ccc(F)cc1
0.398 µM (active)
